Values from patent US9359298B2

Below, each entry is listed alongside its reported log10(IC50).
Tested on: Influenza A virus (hanfang359/95)
assay-name: Determination of anti-influenza virus activity (CPE in MDCK cells)
Assay type: cell-based
assay-context: Influenza A virus, MDCK, 36 h
Quick note: numbers are log10 of IC50, with µg/mL as the unit.

{"columns": ["compound", "log10(IC50)"],
 "data": [
  ["COc1cc(/C=C/c2ccccc2)cc(OCC2CNCCN2)c1CC=C(C)C (centres unmarked) [Compound 26f]", -0.17],
  ["COC(=O)c1c(/C=C/c2ccccc2)cc(OC)c(CC=C(C)C)c1OC(=O)c1cccnc1 [Compound 24j]", 0.37],
  ["COc1cc(/C=C/c2ccccc2)c(C(=O)O)c(O)c1CC=C(C)C [Compound 1]", 0.95],
  ["COc1cc(/C=C/c2ccccc2)cc(OC(=O)c2cnc[nH]2)c1CC=C(C)C [Compound 24r]", -0.01],
  ["COC(=O)c1c(/C=C/c2cccc(OC)n2)cc(OC)c(CC=C(C)C)c1O [Compound 8y]", 0.33]
]}

log10(IC50) reported for this compound COc1cc(/C=C/c2ccccc2)c(C(=O)O)c(OC(=O)C(=O)O)c1CC=C(C)C [Compound 31b] : -0.27

----------
System: Coxsackie virus B6
assay-name: Coxsackie virus activity assay (CPE in Vero cells)
Assay type: cell-based
assay-context: Vero, read-out: COX-B6 IC50, Vero cells, about 100TCID50, CPE, Reed-Muench
Below, each entry is listed alongside its reported IC50.

{"columns": ["compound", "result"],
 "data": [
  ["COC(=O)c1c(/C=C/c2ccccc2)cc(OC)cc1OC [Compound 6]", "> 2.06 µg/mL"],
  ["COc1cc(/C=C/c2ccccc2C)cc(O)c1CC=C(C)C [Compound 10e]", "2.35 µg/mL"],
  ["COc1cc(/C=C/c2ccccc2)c(C(=O)O)c(OC(=O)c2cnc[nH]2)c1CC=C(C)C [Compound 24q]", "1.35 µg/mL"]
]}

IC50 reported for this compound COc1cc(/C=C/c2ccncc2)c(C(=O)O)c(O)c1CC=C(C)C [Compound 1r] : 6.35 µg/mL

IC50 reported for this compound CC/C=C/c1cc(OC)c(CC=C(C)C)c(O)c1C(=O)OC [Compound 8h] : > 2.06 µg/mL

----------
Below, each entry is listed alongside its reported log10(IC50).
Test system: Influenza A virus (hanfang359/95)
assay-name: Determination of anti-influenza virus activity (CPE in MDCK cells)
Assay type: cell-based
assay-context: Influenza A virus, MDCK, 36 h
Quick note: numbers are log10 of IC50, with µg/mL as the unit.

Use the examples below as a reference point.
{"columns": ["compound", "readout-label", "numeric-result"],
 "data": [
  ["CC/C=C/c1cc(O)c(CC=C(C)C)c(OC)c1 [Compound 10h]", "log10(IC50)", -0.13],
  ["COC(=O)c1c(/C=C/C2CCCCC2)cc(OC)c(CC=C(C)C)c1O [Compound 8p]", "log10(IC50)", 1.01],
  ["COc1cc(/C=C/Cc2ccccc2)cc(OC)c1 [Compound 21a]", "log10(IC50)", 0.12],
  ["COc1cc(/C=C/c2ccccc2)c(C(=O)O)c(OC(=O)NN)c1CC=C(C)C [Compound 29b]", "log10(IC50)", 0.08],
  ["COc1cc(/C=C/c2cccc(C)c2)cc(O)c1CC=C(C)C [Compound 10f]", "log10(IC50)", -0.05],
  ["COC(=O)c1c(/C=C/c2ccccc2)cc(OC)c(CC=C(C)C)c1OCN [Compound 26a]", "log10(IC50)", 0.36]
]}

As a next step, examine the compound that follows.
log10(IC50) reported for this compound COc1cc(/C=C/C2CCCCC2)c(C(=O)O)c(O)c1CC=C(C)C [Compound 1p] : 0.94
